Origin of values: ChEMBL document CHEMBL3885861

Catalogue of Lym values
- Organism: Rattus norvegicus
- METHOD_SUMMARY: Open TG-GATES - Regimen: Single
- Assay type: toxicity, organism-based, Sprague-Dawley
- Set-up: regimen Single, gender Male, age 6 weeks
- TEST_SETTINGS: in vivo, po, 0 mg/kg, 6 h, tissue Blood, route gavage, dose level Control
Respond with the bare value in %.

Check out these entries, answers already filled in.
# COMPOUND, READOUT_UNITS, OBSERVED_MEASUREMENT
rows = [
    ("Cc1nnc2n1-c1ccc(Cl)cc1C(c1ccccc1Cl)=NC2", "%", 81.4),
    ("CCCc1cc(=O)[nH]c(=S)[nH]1", "%", 80),
    ("Nc1c2c(nc3ccccc13)CCCC2", "%", 80.2),
    ("NC1=NC(=O)C(c2ccccc2)O1 (configuration not stated)", "%", 77.6),
    ("CNC(=C[N+](=O)[O-])NCCSCc1ccc(CN(C)C)o1", "%", 79),
    ("CC(C)NNC(=O)c1ccncc1", "%", 79.4),
]

In the following, a different compound is considered.
-- ask Provide Lym value for the following compound: CCOc1ccc(NC(C)=O)cc1
-- reply 76.2
